Biological target: c-Ret (RET receptor tyrosine kinase) on NB41A3-mRL3 cells (UniProt P35546 29-1115, limits assumed)
Sequence (P35546 29-1115 limits assumed): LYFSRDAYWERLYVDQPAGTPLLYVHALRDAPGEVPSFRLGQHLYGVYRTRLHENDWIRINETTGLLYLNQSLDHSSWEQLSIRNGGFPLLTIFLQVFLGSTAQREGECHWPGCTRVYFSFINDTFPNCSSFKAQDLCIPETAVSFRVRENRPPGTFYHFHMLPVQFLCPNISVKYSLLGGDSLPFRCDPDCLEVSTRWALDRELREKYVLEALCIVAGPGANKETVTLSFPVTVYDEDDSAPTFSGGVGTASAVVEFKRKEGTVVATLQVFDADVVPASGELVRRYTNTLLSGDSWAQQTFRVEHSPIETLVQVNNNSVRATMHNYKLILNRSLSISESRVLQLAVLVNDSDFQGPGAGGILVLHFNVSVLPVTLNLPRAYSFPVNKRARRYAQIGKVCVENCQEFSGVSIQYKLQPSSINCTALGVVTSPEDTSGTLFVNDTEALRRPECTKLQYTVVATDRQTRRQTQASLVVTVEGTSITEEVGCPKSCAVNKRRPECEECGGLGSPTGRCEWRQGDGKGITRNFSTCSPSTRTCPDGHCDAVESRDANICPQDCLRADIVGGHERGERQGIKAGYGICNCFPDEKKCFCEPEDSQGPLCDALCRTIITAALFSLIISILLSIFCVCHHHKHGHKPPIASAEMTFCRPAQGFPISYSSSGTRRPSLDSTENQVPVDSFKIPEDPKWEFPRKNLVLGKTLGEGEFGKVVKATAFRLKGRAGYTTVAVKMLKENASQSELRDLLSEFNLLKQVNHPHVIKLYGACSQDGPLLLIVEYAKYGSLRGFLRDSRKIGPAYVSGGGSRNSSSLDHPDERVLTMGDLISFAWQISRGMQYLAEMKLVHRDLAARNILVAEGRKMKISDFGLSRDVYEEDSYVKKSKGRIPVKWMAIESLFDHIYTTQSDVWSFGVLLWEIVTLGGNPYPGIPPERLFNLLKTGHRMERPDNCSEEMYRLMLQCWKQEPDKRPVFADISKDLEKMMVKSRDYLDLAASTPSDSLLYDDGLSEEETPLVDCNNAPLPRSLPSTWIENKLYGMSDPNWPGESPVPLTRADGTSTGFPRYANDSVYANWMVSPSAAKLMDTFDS
Assay: cell-based or functional assay
// values below are reported KIRA:~ Max Efficacy vs WT

Below, each entry is followed by its recorded KIRA:~ Max Efficacy vs WT result.
Documented KIRA:~ Max Efficacy vs WT of wild-type rat neublastin NBN113 (E. coli derived) (ligand) AGTRSSRARATDARGCRLRSQLVPVSALGLGHSSDELIRFRFCSGSCRRARSPHDLSLASLLGAGALRSPPGSRPISQPCCRPTRYEAVSFMDVNSTWRTVDHLSATACGCLG : ~100%

Documented KIRA:~ Max Efficacy vs WT of 3 × 10 kDa PEG-WT/N95K-NBN106 (ligand, 10 kDa PEG on the amino terminus and on Lys95 (Table 8, for the dimer: 1, 1, 95); 10 kDa PEG on the amino terminus (Table 8, for the dimer: 1, 1, 95)) chain 1: ARATDARGCRLRSQLVPVSALGLGHSSDELIRFRFCSGSCRRARSPHDLSLASLLGAGALRSPPGSRPISQPCCRPTRYEAVSFMDVNSTWRTVDHLSATACGCLG chain 2: ARATDARGCRLRSQLVPVSALGLGHSSDELIRFRFCSGSCRRARSPHDLSLASLLGAGALRSPPGSRPISQPCCRPTRYEAVSFMDVKSTWRTVDHLSATACGCLG : ~115%

Documented KIRA:~ Max Efficacy vs WT of 4 × 5 kDa PEG NBN106-N95K (ligand, 5 kDa PEG on the amino terminus and on Lys95 of each chain (Table 8: 1, 1, 95, 95)) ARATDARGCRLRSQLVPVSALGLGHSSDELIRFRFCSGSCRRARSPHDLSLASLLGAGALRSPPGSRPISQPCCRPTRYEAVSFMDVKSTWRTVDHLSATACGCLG : ~80%

Documented KIRA:~ Max Efficacy vs WT of 1 × 20 kDa Branched PEG-NBN (ligand, one 20 kDa branched PEG on the amino-terminal amino acid of one of the two chains (Table 8: 1)) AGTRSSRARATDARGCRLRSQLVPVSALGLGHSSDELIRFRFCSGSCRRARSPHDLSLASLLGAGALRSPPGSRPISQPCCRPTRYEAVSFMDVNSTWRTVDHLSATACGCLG : ~83%

Documented KIRA:~ Max Efficacy vs WT of 2 × 10 kDa PEG-NBN (ligand, 10 kDa PEG on the amino-terminal amino acid of each chain (Table 8: 1, 1)) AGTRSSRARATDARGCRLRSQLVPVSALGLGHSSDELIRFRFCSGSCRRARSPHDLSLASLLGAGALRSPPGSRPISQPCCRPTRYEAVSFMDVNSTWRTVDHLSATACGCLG : ~72%

Next, consider the following binder.
Documented KIRA:~ Max Efficacy vs WT of 3(,4) × 10 kDa PEG NBN106-N95K (ligand, 10 kDa SPA-PEG at the amino termini and Lys95, average 3.3 PEG moieties per dimer (Table 8: 1, 1, 95 (,95)); mixture of 2, 3 and 4 PEG adducts) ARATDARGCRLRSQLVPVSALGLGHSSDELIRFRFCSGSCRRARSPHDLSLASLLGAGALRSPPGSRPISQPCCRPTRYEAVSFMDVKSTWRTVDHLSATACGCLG : ~90%
